- system-tested: human FASN (Homo sapiens, UniProt P49327)
- Construct: was purified from SKBR3 cells using procedures modified from those in Jayakumar et al; endogenous in cells; host or cells: SKBR3 human breast cancer cells (ATCC); Endogenous enzyme purified by ammonium sulfate precipitation and a mono Q column
- Sequence (P49327 whole entry): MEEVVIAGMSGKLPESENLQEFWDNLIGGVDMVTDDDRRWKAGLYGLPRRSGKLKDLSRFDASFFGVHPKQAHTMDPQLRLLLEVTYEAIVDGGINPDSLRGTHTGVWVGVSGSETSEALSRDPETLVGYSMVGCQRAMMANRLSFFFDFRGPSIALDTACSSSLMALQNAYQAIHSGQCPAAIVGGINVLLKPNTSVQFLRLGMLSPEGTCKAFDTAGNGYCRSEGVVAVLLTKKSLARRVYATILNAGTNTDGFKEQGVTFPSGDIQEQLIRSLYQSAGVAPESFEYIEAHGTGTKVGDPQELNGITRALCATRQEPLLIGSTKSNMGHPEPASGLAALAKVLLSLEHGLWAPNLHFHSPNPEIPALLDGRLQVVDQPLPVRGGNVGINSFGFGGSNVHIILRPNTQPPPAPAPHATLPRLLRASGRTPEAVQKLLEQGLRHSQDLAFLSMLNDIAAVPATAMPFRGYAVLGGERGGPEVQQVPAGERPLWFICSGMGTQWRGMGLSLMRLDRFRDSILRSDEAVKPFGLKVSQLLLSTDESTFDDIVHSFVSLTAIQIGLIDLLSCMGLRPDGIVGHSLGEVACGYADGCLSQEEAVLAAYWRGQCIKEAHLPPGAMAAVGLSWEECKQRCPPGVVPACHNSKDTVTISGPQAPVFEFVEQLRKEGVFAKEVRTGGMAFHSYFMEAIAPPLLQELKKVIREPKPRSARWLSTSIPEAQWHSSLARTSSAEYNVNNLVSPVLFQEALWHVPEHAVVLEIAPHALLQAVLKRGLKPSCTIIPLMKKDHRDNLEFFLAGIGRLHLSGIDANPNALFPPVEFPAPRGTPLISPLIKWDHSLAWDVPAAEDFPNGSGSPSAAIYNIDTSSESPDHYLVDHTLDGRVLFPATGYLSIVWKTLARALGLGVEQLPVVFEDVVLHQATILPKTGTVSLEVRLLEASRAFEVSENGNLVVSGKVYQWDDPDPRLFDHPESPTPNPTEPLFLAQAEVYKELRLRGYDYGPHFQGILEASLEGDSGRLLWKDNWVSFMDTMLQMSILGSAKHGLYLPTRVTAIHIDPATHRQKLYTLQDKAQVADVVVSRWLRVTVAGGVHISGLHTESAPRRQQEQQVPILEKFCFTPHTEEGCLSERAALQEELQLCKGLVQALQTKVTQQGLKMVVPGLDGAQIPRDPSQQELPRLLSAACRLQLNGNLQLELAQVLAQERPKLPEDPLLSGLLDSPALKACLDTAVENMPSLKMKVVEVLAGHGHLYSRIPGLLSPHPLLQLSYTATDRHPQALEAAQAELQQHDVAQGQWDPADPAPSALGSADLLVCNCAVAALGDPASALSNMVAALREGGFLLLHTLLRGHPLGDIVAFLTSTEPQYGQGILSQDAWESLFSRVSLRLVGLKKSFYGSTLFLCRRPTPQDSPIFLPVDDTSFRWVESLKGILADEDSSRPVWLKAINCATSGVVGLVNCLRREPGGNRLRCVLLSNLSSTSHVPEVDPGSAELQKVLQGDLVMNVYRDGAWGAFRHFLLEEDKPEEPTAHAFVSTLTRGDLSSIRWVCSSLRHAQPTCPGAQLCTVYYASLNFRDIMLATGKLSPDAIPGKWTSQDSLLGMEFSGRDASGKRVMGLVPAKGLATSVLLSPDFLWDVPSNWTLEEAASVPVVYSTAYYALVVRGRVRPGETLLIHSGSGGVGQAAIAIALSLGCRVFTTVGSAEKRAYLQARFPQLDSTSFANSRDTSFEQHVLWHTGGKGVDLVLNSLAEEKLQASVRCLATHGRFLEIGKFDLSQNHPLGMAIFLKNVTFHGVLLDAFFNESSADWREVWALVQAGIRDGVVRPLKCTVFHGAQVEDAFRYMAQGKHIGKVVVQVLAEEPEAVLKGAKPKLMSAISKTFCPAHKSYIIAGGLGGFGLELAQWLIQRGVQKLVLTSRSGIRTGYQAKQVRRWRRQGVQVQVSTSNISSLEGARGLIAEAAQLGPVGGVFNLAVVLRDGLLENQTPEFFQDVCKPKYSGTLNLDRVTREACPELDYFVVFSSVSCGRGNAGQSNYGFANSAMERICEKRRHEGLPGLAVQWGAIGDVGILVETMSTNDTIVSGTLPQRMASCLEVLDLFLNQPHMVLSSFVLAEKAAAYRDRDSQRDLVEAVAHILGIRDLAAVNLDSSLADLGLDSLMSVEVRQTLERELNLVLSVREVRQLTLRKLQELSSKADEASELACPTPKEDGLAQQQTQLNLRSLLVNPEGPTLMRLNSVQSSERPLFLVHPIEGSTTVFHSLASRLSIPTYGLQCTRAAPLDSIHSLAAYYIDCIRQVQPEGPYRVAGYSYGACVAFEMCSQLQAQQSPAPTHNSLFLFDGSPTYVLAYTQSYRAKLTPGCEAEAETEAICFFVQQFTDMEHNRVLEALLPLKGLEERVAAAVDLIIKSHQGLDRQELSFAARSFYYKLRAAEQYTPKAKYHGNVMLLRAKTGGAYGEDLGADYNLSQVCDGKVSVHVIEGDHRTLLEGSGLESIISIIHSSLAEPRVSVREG
- protocol-text: FASN NADPH Consumption Assay
- Type: biochemical
- stated-conditions: human FASN purified from SKBR3 cells; starred symbols
pIC50: −log10 of the molar value.
assay-endpoint: pIC50

Solved cases below.
>>> print(df.to_string())
                              sample_smiles        result
0  O=C(NCCCN(C(=O)n1nnn(-c2c(Cl)cccc2Cl)c1=O)C1CCCCC1)c1cccnc1  5.00 to 6.00
1  CS(=O)(=O)NCCCN(C(=O)n1nnn(-c2c(Cl)cccc2Cl)c1=O)c1ccc(C(=O)O)cc1  5.00 to 6.00
2  CC(C)(C)OC(=O)N[C@@H]1CCN(C(=O)n2nnn(-c3c(Cl)cccc3Cl)c2=O)C1  5.00 to 6.00

input: Give the measured pIC50 of O=C(N1CCCc2ccccc21)n1nnn(-c2ccccc2Oc2ccccc2)c1=O .
output: 6.60 to 7.22

input: Now consider CC(=O)NCCCN(C(=O)n1nnn(-c2c(Cl)cccc2Cl)c1=O)C1CCCCC1 .
output: 5.00 to 6.00

input: Now consider O=C(Nc1ccccc1)n1nnn(-c2ccccc2)c1=O .
output: < 5.00
